# reported half-life at 10 µM; entries follow
Experiment: Plasma stability
Format: in vitro ADME
Conditions: 37 °C, pH 7.4, read-out: plasma stability T1/2

>  <MOLECULE>
CC(=O)N[C@H](C(=O)N1C[C@H](O)[C@@H](F)[C@H]1C(=O)NCc1ccc(-c2scnc2C)cc1)C(C)(C)C [14b]

>  <half-life at 10 µM>
> 3 h

$$$$
>  <MOLECULE>
CC(=O)N[C@H](C(=O)N1C[C@H](O)[C@H](F)[C@H]1C(=O)NCc1ccc(-c2scnc2C)cc1)C(C)(C)C [14a]

>  <half-life at 10 µM>
> 3 h

$$$$

---

Experiment: CHI Log D determination
Type: physicochemical
Settings: reversed-phase HPLC, Phenomenex Luna C18 column, pH 7.4; read-out: CHI LogD7.4
Description: Using a fast gradient, reverse-phase HPLC method to determine the chromatographic hydrophobicity index (CHI) was determined as described by Camurri and Zaramella (ref. 26) and Valko et al. (ref. 27). Briefly, by plotting the retention time of a set of reference compounds against known CHI values. The CHI value of test compounds was then calculated according to their retention time. […]

>  <COMPOUND>
CC(=O)N[C@H](C(=O)N1C[C@H](O)[C@@H](F)[C@H]1C(=O)NCc1ccc(-c2scnc2C)cc1)C(C)(C)C [14b]

>  <chromatographic logD>
1.3

$$$$
>  <COMPOUND>
CC(=O)N[C@H](C(=O)N1C[C@H](O)[C@H](F)[C@H]1C(=O)NCc1ccc(-c2scnc2C)cc1)C(C)(C)C [14a]

>  <chromatographic logD>
1.3

$$$$

---

Molecular target: VBC (VHL, elongin B, elongin C) (Homo sapiens, UniProt P40337)
Sequence (P40337 54-213): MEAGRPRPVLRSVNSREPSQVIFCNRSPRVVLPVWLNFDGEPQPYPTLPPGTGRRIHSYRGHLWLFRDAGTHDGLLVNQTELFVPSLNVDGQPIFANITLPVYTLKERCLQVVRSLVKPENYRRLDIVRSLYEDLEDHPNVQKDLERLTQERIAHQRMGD
Sequence (Q15369 17-112 partner limits assumed): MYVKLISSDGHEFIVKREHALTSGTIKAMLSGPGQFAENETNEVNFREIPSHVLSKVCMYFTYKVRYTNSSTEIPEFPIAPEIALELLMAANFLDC
Sequence (Q15370 1-104 partner limits assumed): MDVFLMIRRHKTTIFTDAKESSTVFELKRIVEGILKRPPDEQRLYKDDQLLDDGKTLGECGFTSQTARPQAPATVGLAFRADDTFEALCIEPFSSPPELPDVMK
pKd: −log10 of the molar value.
MEASURED ENDPOINT: pKd

>  <COMPOUND>
CC(=O)N[C@H](C(=O)N1C[C@H](O)[C@@H](F)[C@H]1C(=O)NCc1ccc(-c2scnc2C)cc1)C(C)(C)C [14b]

>  <TEST SYSTEM>
VBC (VHL, elongin B, elongin C) (Homo sapiens, UniProt P40337)

>  <ENDPOINT VALUE>
5.51

$$$$

Data provenance is paper PMC6430500.
